Source listed as patent US9150566B2.

EXPERIMENTAL SYSTEM: human orexin-2 receptor (Homo sapiens (Human), UniProt O43614)
Sequence (O43614 whole entry): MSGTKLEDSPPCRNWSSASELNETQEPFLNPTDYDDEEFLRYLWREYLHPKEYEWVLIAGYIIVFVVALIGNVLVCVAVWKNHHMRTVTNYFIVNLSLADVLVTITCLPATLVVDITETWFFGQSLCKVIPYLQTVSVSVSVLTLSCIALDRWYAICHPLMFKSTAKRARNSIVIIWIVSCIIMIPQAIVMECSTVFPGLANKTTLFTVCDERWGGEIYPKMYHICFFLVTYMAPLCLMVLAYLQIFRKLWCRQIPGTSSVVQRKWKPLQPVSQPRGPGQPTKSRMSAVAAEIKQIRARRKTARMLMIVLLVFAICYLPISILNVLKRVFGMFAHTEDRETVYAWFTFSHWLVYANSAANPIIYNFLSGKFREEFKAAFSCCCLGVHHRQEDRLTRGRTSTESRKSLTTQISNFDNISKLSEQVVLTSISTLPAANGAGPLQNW
ASSAY METHOD TEXT: In vitro intracellular calcium measurements (FLIPR), antagonistic activity on orexin-2 receptor
Type: cell-based
EXPERIMENTAL PARAMETERS: CHO cells expressing human orexin-2 receptor; FLIPR; 3 nM orexin-A agonist; 120 min antagonist incubation; geometric mean if determined several times; read-out: IC50 OX2
In this section, each of the molecules is paired with its reported pIC50.
// pIC50 is dimensionless: -log10 of concentration (M)

Here's what some known entries look like.
O=C(c1ccccc1-n1nccn1)N1CCOC[C@H]1Cc1cccc(-c2ncon2)c1 [Example 1]; 6.10
C[C@@H]1CN(C(=O)c2cccc(Cl)c2-n2nccn2)[C@H](Cc2cc(-n3nccn3)ccc2F)CO1 [Example 173]; 6.34

Query: Query the reported pIC50 for human orexin-2 receptor (Homo sapiens (Human), UniProt O43614); item: Cc1cc(C(=O)N2C[C@@H](C)OC[C@H]2Cc2cccc(-n3nccn3)c2)c(-n2nccn2)cc1C [Example 98]
Response: 7.62

Query: Query the reported pIC50 for human orexin-2 receptor (Homo sapiens (Human), UniProt O43614); item: C[C@@H]1CN(C(=O)c2ccccc2-n2nccn2)[C@H](Cc2cc(-c3ncccn3)ccc2F)CO1 [Example 148]
Response: 5.71

Query: Query the reported pIC50 for human orexin-2 receptor (Homo sapiens (Human), UniProt O43614); item: Cc1ccc(C(=O)N2C[C@@H](C)OC[C@H]2Cc2cc(-n3ccnn3)ccc2F)c(-n2nccn2)c1 [Example 141]
Response: 6.37

Query: Query the reported pIC50 for human orexin-2 receptor (Homo sapiens (Human), UniProt O43614); item: O=C(c1ccccc1-n1nccn1)N1CCOC[C@H]1Cc1ccc(Cl)c(-c2ncon2)c1 [Example 90]
Response: 6.32

Query: Query the reported pIC50 for human orexin-2 receptor (Homo sapiens (Human), UniProt O43614); item: Cc1cc(C)c(-n2nccn2)c(C(=O)N2CCOC[C@H]2Cc2cccc(-n3nccn3)c2)c1 [Example 75]
Response: 6.26

Query: Query the reported pIC50 for human orexin-2 receptor (Homo sapiens (Human), UniProt O43614); item: Cc1cc(C(=O)N2[C@H](Cc3cccc(-n4nccn4)c3)COC[C@@H]2C)c(-n2nccn2)cc1C [Example 74]
Response: 6.45

Query: Query the reported pIC50 for human orexin-2 receptor (Homo sapiens (Human), UniProt O43614); item: O=C(c1ccc(Cl)cc1-n1nccn1)N1CCOC[C@H]1Cc1cc(-n2nccn2)ccc1Cl [Example 170]
Response: 6.35
